Values compiled from the Kinase Knowledgebase extract (Sharma et al. 2016).

Target: PIK3CD (Human)
Experiment: Cell-Based Assay
Settings: rat-1
pIC50: −log10 of the molar value.

{"columns": ["chemical.smiles", "pIC50"],
 "data": [
  ["COc1ccc(-n2c([C@@H]3CCCN3c3ncnc(N)c3C#N)nc3cccc(Cl)c3c2=O)cn1", 6.82],
  ["O=c1c2c(Cl)cccc2nc([C@@H]2CCCN2c2ncnc3[nH]cnc23)n1C1CCCCC1", 6.92],
  ["O=c1c2c(C(F)(F)F)cccc2nc([C@@H]2C[C@H](O)CN2c2ncnc3[nH]cnc23)n1-c1ccccc1", 7.04]
]}

----------
Biological target: PIK3CD (Human) (UniProt O00329)
Sequence (O00329 whole entry, looked up): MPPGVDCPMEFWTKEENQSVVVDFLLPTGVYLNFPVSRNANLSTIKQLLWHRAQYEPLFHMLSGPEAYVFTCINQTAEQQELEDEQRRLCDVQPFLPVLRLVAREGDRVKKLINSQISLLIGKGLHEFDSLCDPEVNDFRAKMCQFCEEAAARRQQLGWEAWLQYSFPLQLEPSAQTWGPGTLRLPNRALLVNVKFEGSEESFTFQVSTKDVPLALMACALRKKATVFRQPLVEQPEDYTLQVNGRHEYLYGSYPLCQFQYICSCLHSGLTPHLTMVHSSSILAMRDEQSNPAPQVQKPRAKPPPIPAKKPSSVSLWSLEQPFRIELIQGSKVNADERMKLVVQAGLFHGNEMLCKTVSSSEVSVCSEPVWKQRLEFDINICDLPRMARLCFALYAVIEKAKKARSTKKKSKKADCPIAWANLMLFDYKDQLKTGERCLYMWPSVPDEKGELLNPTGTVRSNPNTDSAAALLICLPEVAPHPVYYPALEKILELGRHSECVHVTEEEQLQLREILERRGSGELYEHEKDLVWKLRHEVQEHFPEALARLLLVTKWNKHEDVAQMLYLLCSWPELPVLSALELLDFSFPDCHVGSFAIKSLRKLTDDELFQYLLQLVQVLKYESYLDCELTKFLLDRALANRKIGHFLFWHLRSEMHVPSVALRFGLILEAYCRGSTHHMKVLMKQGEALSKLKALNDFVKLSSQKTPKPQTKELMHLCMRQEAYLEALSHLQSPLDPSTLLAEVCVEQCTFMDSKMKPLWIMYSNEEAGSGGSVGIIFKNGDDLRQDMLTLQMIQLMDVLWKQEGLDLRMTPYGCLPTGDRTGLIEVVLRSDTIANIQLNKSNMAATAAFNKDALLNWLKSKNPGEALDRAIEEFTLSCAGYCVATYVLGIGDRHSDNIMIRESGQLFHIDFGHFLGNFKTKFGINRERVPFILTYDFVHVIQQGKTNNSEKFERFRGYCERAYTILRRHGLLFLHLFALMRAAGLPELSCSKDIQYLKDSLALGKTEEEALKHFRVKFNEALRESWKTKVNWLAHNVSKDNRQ
Test: Enzyme Assay
pIC50: −log10 of the molar value.
Give condition met when the value for pIC50 is at least 8. Give condition not met when it is less.

{"columns": ["chemical.smiles", "group.label"],
 "data": [
  ["Cc1nc(N)nc(N2C[C@@H](O)C[C@H]2c2nc3cccc(C(F)(F)F)c3c(=O)n2-c2ccccc2)c1C#N", "condition met"],
  ["Nc1nc(N2CCC[C@H]2c2nc3cc(F)cc(F)c3c(=O)n2-c2ccccc2)c2nc[nH]c2n1", "condition not met"],
  ["N#Cc1c(N)ncnc1N1C[C@@H](O)C[C@H]1c1nc2cccc(C(F)(F)F)c2c(=O)n1-c1cccc(F)c1", "condition not met"],
  ["O=c1c2c(Cl)cccc2nc([C@@H]2C[C@H](O)CN2c2ncnc3[nH]cnc23)n1-c1ccccc1", "condition met"],
  ["N#Cc1c(N)ncnc1N1C[C@@H](O)C[C@H]1c1nc2cccc(F)c2c(=O)n1-c1ccccc1", "condition not met"],
  ["N#Cc1c(N)ncnc1N1CCC[C@H]1c1nc2cccc(F)c2c(=O)n1-c1ccccc1", "condition not met"],
  ["COc1ccc(-n2c([C@@H]3CCCN3c3ncnc(N)c3C#N)nc3cccc(Cl)c3c2=O)cn1", "condition not met"]
]}

----------
Molecular target: PIK3CA (human) (UniProt P42336)
Sequence (P42336 whole entry, looked up): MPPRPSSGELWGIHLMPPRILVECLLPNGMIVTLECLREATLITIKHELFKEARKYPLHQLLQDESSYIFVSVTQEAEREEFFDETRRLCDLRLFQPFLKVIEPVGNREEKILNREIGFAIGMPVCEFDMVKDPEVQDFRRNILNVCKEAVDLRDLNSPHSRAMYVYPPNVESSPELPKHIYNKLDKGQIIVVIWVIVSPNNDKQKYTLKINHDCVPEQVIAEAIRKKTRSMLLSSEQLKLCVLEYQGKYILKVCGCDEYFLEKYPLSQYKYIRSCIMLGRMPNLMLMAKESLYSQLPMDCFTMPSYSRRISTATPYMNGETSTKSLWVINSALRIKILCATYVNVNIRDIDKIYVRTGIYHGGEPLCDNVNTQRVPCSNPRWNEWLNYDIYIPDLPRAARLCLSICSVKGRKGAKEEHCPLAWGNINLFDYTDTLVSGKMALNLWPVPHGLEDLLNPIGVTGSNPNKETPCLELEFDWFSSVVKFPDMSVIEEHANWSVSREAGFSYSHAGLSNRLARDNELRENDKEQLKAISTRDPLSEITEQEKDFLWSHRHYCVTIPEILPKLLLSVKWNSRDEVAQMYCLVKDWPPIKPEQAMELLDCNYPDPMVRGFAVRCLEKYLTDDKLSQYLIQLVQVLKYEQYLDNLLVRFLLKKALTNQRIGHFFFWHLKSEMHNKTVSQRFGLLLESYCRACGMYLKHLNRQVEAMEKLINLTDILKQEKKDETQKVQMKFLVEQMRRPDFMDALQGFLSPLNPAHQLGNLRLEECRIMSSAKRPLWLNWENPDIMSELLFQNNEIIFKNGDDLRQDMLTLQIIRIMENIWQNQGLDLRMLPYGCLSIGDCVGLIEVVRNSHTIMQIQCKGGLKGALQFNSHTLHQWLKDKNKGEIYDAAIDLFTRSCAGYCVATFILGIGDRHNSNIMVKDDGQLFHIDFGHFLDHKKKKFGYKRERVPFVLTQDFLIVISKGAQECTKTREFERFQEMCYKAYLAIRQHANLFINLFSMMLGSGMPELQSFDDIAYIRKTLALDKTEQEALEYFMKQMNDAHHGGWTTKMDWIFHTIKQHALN
Assay: Cell-Based Assay
Details: rat-1
pIC50: −log10 of the molar value.

{"columns": ["chemical.smiles", "pIC50"],
 "data": [
  ["Cc1nc(N)nc(N2CCC[C@H]2c2nc3ccc(F)c(S(C)(=O)=O)c3c(=O)n2-c2ccccc2)c1C#N", "< 5.00"],
  ["O=c1c2c(Cl)cccc2nc([C@@H]2CCCN2c2ncnc3[nH]cnc23)n1N1CCCCC1", "< 5.00"],
  ["Nc1nc(N2CCC[C@H]2c2nc3cccc(Cl)c3c(=O)n2C2CCCCC2)c2nc[nH]c2n1", "< 5.00"]
]}

----------
molecules and their reported IC50
Molecular target: PIK3CA (human) (UniProt P42336)
Test: Enzyme Assay
reported.metric: IC50

{"columns": ["chemical.smiles", "reported.metric", "value.measured"],
 "data": [
  ["COc1ccc(-n2c([C@@H]3CCCN3c3ncnc4[nH]cnc34)nc3cccc(Cl)c3c2=O)cn1", "IC50", "> 10 µM"],
  ["N#Cc1c(N)ncnc1N1C[C@@H](O)C[C@H]1c1nc2cccc(C(F)(F)F)c2c(=O)n1-c1cccnc1", "IC50", "3.8 µM"],
  ["Cc1nc(N)nc(N2CCC[C@H]2c2nc3cc(F)cc(F)c3c(=O)n2-c2ccccc2)c1C#N", "IC50", "5.6 µM"],
  ["N#Cc1c(N)ncnc1N1C[C@@H](O)C[C@H]1c1nc2cccc(C(F)(F)F)c2c(=O)n1-c1ccccc1", "IC50", "1.8 µM"],
  ["Cc1nc(N)nc(N2C[C@@H](O)C[C@H]2c2nc3cccc(C(F)(F)F)c3c(=O)n2-c2cc(F)cc(F)c2)c1C#N", "IC50", "3.1 µM"],
  ["Cc1nc(N)nc(N2CCC[C@H]2c2nc3cccc(C(F)(F)F)c3c(=O)n2-c2cccnc2)c1C#N", "IC50", "0.54 µM"]
]}
